biological target: Intestinal-type alkaline phosphatase (Bos taurus); test: Inhibition of bovine intestinal alkaline phosphatase assessed as residual enzyme activity at 0.1 mM in presence of 1% DMSO at pH 10.4 at 37 degC relative to untreated control
Counter-ions that a name gives are not always drawn.
attribute measured: Activity (%)
Give bare numbers, in %.

Take a look at these entries with their results.
| compound | Activity [%] |
| --- | --- |
| N#Cc1ccccc1-c1sc2ccccc2c1C=O | 110 |
| COc1ccc(-c2cc3ccccc3s2)c([N+](=O)[O-])c1 | 99 |
| COc1ccc(-c2sc3ccccc3c2C(=O)c2cc(OC)c(O)c(OC)c2)c([N+](=O)[O-])c1 | 125 |

Field: Activity. Fill in for each record below.
1. COc1c(-c2cnc3ccccc3c2)sc2ccccc12
2. N#Cc1c(-c2cccc(Cl)c2)sc2ccccc12
3. Nc1ccccc1-c1cc2ccccc2s1
4. N#Cc1ccccc1-c1sc2ccccc2c1Oc1ccccc1
5. COC(=O)C(Cc1c(-c2ccc(C#N)cc2)sc2ccccc12)NCc1ccccc1 (centres undefined)
6. O=Cc1c(-c2cccc(Cl)c2)sc2ccccc12
7. N#Cc1ccccc1-c1sc2ccccc2c1N1CCCCC1

## Output
[64, 115, 93, 110, 115, 62, 99]

Field: Activity. Fill in for each record below.
1. N#Cc1ccc(Oc2csc3ccccc23)cc1
2. Fc1ccc(Oc2csc3ccccc23)cc1
3. c1ccc(-c2cc3ccccc3s2)nc1
4. COc1ccc(-c2sc3ccccc3c2C=O)cc1
5. N#Cc1ccccc1-c1sc2ccccc2c1C#N
6. COc1ccc(C(=O)c2c(-c3ccc(OC)cc3)sc3ccccc23)cc1

## Output
1: 87; 2: 104; 3: 119; 4: 37; 5: 90; 6: 70

Field: Activity. Fill in for each record below.
1. O=Cc1csc2ccccc12
2. N#Cc1ccccc1-c1sc2ccccc2c1Oc1ccc(F)cc1
3. COc1ccc(-c2sc3ccccc3c2Oc2ccccc2)cc1
4. CC(C)(C)c1ccc(Oc2csc3ccccc23)cc1
5. COc1ccc(-c2sc3ccccc3c2N2CCCCC2)cc1
6. c1ccc([C@H]2CN3CCSC3=N2)cc1 [LEVAMISOLE HYDROCHLORIDE]
7. O=Cc1c(-c2ccccc2Cl)sc2ccccc12
8. c1ccc2c(N3CCCCC3)csc2c1

## Output
1: 120; 2: 66; 3: 105; 4: 113; 5: 106; 6: 99; 7: 63; 8: 92

###

target: Intestinal-type alkaline phosphatase (Bos taurus) (UniProt P19111); assay: Inhibition of bovine intestinal alkaline phosphatase assessed as residual enzyme activity at 0.1 mM in presence of 1% DMSO at pH 10.4 at 37 degC relative to untreated control
Sequence (P19111 20-506 limits assumed): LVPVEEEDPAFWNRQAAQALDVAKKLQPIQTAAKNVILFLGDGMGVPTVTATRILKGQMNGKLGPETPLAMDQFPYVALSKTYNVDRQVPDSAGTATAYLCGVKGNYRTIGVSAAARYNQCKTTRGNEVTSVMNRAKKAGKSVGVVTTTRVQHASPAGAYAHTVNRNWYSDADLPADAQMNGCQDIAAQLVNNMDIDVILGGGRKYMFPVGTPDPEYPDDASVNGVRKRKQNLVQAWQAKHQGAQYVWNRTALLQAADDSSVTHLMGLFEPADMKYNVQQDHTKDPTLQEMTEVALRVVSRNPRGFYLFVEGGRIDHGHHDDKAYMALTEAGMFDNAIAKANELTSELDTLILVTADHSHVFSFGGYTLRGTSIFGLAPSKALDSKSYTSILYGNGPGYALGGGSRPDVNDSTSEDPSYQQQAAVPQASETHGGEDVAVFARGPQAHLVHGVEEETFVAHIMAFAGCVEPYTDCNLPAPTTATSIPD
Would you kindly list Activity for each of these compounds?
Answers are plain numbers, in %.

Take a look at these entries with their results.
| compound | tested system | Activity / % |
| --- | --- | --- |
| O=Cc1c(-c2cnc3ccccc3c2)sc2ccccc12 | Intestinal-type alkaline phosphatase (Bos taurus) (UniProt P19111) | 110 |
| COc1ccc(Oc2c(-c3ccccc3C#N)sc3ccccc23)c(OC)c1OC | Intestinal-type alkaline phosphatase (Bos taurus) (UniProt P19111) | 121 |
| O=C(c1ccccc1)c1csc2ccccc12 | Intestinal-type alkaline phosphatase (Bos taurus) (UniProt P19111) | 43 |

Field: Activity. Fill in for each record below.
1. O=Cc1c(-c2ccc(C(F)(F)F)cc2)sc2ccccc12
2. CN1CCN(c2c[s+]([O-])c3ccccc23)CC1 (stereo not given)
3. c1ccc2c(C3CN4CCSC4=N3)csc2c1 (stereo not given)
4. N#Cc1c(-c2ccc(C(F)(F)F)cc2)sc2ccccc12
5. N#Cc1sc2ccccc2c1-c1ccc(C(F)(F)F)cc1
6. N#Cc1c(-c2cccnc2)sc2ccccc12

## Output
30
102
100
96
115
106

Field: Activity. Fill in for each record below.
1. N#Cc1c(-c2ccccn2)sc2ccccc12
2. COc1ccc(-c2sc3ccccc3c2OC)cc1
3. N#Cc1ccc(-c2sc3ccccc3c2C=O)cc1
4. FC(F)(F)COc1cc2ccccc2s1

## Output
94
78
92
116

Field: Activity. Fill in for each record below.
1. N#Cc1c(-c2ccc(Cl)cc2)sc2ccccc12
2. O=[N+]([O-])c1ccccc1-c1cc2ccccc2s1
3. N#Cc1ccccc1-c1sc2ccccc2c1Oc1ccc(Cl)cc1
4. COC(=O)/C(=C\c1c(-c2ccc(C#N)cc2)sc2ccccc12)NCc1ccccc1
5. COc1ccc(C(=O)c2c(-c3ccccc3[N+](=O)[O-])sc3ccccc23)cc1
6. COc1ccc(C(=O)c2c(-c3ccc(OC)cc3[N+](=O)[O-])sc3ccccc23)cc1
7. COc1cccc(C(=O)c2c(-c3ccc(OC)cc3[N+](=O)[O-])sc3ccccc23)c1
8. COc1c(-c2ccccc2C)sc2ccccc12

## Output
69
121
101
108
107
95
116
73

Field: Activity. Fill in for each record below.
1. O=Cc1ccc(Oc2csc3ccccc23)cc1
2. N#Cc1ccc(Oc2c[s+]([O-])c3ccccc23)cc1 (stereo not given)
3. c1ccc2c(N3CCOCC3)csc2c1

## Output
1. 9
2. 106
3. 108

## Input Look up and state reported Activity for `COc1ccc(-c2sc3ccccc3c2CN)c(OC)c1OC`
## Output 142

###

species on record: Sus scrofa; test: Inhibition of porcine kidney tissue non-specific alkaline phosphatase assessed as residual enzyme activity at 0.4 mM in presence of 4% DMSO at pH 10.4 at 37 degC relative to untreated control
attribute measured: Activity (%)
Numbers only, in %.

| compound | Activity (%) |
| --- | --- |
| [O-][s+]1cc(Br)c2ccccc21 (stereo not drawn) | 100 |
| c1ccc2c(C3CN4CCSC4=N3)csc2c1 (stereo not drawn) | 19 |
| FC(F)(F)Cc1c(-c2cccnc2)sc2ccccc12 | 84 |
| N#Cc1ccccc1-c1sc2ccccc2c1N1CCCCC1 | 100 |
| N#Cc1ccc(Oc2c(-c3ccccc3C#N)sc3ccccc23)cc1 | 97 |
| COc1c(-c2ccccn2)sc2ccccc12 | 90 |

Field: Activity. Fill in for each record below.
1. [O-][s+]1cc(Oc2ccccc2)c2ccccc21 (stereo not drawn)
2. N#Cc1c(-c2ccc3ccccc3c2)sc2ccccc12

## Output
[104, 99]

Field: Activity. Fill in for each record below.
1. COc1c(-c2cccnc2)sc2ccccc12
2. COc1ccc(C(=O)c2c(-c3ccc(OC)cc3[N+](=O)[O-])sc3ccccc23)cc1
3. CC(C)(C)c1ccc(Oc2csc3ccccc23)cc1

## Output
1: 44; 2: 100; 3: 100

Field: Activity. Fill in for each record below.
1. COc1ccc(C(=O)c2csc3ccccc23)cc1
2. COc1ccc(-c2sc3ccccc3c2OC)cc1

## Output
1. 96
2. 97

###

molecular target: Intestinal-type alkaline phosphatase (Bos taurus) (UniProt P19111); assay: Inhibition of bovine intestinal alkaline phosphatase assessed as residual enzyme activity at 0.1 mM in presence of 1% DMSO at pH 10.4 at 37 degC relative to untreated control
attribute measured: Activity (%)
Answers are plain numbers, in %.

Take a look at these entries with their results.
| compound | Activity, % |
| --- | --- |
| COc1cc(-c2sc3ccccc3c2C#N)cc(OC)c1OC | 88 |
| COc1ccc(-c2sc3ccccc3c2C(=O)c2ccccc2OC)c([N+](=O)[O-])c1 | 117 |
| O=Cc1c(-c2ccccc2)sc2ccccc12 | 41 |
| COc1ccc(Oc2c[s+]([O-])c3ccccc23)cc1 (stereo not given) | 107 |
| Cc1ccc(-c2cc3ccccc3s2)c(N)c1 | 107 |

Field: Activity. Fill in for each record below.
1. COc1cccc(C(=O)c2c(-c3ccccc3[N+](=O)[O-])sc3ccccc23)c1
2. FC(F)c1c(-c2cccnc2)sc2ccccc12
3. COc1c(-c2ccccn2)sc2ccccc12
4. CN(C)c1cccc(-c2sc3ccccc3c2CN)c1
5. C1=CN2CC(c3csc4ccccc34)N=C2S1 (stereo not given)

## Output
1: 98; 2: 103; 3: 99; 4: 134; 5: 99

Field: Activity. Fill in for each record below.
1. N#Cc1ccccc1-c1c(OCC(F)(F)F)sc2ccccc12
2. COc1ccc(-c2csc3ccccc23)cc1
3. COc1ccc(-c2sc3ccccc3c2C#N)cc1
4. NCc1ccc(Oc2csc3ccccc23)cc1
5. COc1ccc(-c2sc3ccccc3c2C(=O)c2ccccc2)c([N+](=O)[O-])c1
6. N#Cc1csc2ccccc12
7. [O-][s+]1cc(Oc2ccc(F)cc2)c2ccccc21 (stereo not given)
8. Cc1ccc(-c2cc3ccccc3s2)c([N+](=O)[O-])c1

## Output
1: 101; 2: 100; 3: 94; 4: 105; 5: 114; 6: 92; 7: 109; 8: 127

Field: Activity. Fill in for each record below.
1. CN1CCN(c2csc3ccccc23)CC1
2. NCc1c(-c2cccnc2)sc2ccccc12
3. O=[N+]([O-])c1ccccc1-c1sc2ccccc2c1-c1ccccc1[N+](=O)[O-]

## Output
1: 107; 2: 105; 3: 108

Field: Activity. Fill in for each record below.
1. Clc1ccc(Oc2csc3ccccc23)cc1
2. Clc1cccc(-c2cc3ccccc3s2)c1
3. [O-][s+]1cc(N2CCOCC2)c2ccccc21 (stereo not given)
4. FC(F)c1c(-c2ccccc2)sc2ccccc12
5. c1ccc(-c2sc3ccccc3c2N2CCCCC2)cc1
6. COc1cccc(-c2sc3ccccc3c2C#N)c1
7. FC(F)(F)COc1sc2ccccc2c1-c1cccnc1

## Output
[107, 95, 97, 94, 99, 97, 102]

Attribution: ChEMBL document CHEMBL1152630
